- Tested on: HL-60(TB) leukemia
- method notes: NCI tumour cell line growth inhibition, 48 h; in the data active = GI50 below about 0.43 µM; inactive = the rest
Select the correct class. Options are active, inactive and nothing else.

Cc1ccc(-c2c(C#N)c(N)nc(N3CCOCC3)c2C#N)o1 : inactive

(Q) So what was the verdict on CCCCCCCCCCCCCCCCCCNC(=O)[C@H]1CSC(c2ccc(OC)c(F)c2)N1 (stereo partly specified) in this test?
(A) inactive

(Q) Please share the test call associated with COc1cc2c(cc1OC)C(=O)C(Br)CC2 (stereo unspecified) .
(A) inactive

(Q) Write down the call the test reported for this compound. Item: `COc1cccc(NC(=O)c2sc3nc4c(cc3c2N)CCCC4)c1`
(A) active

(Q) For `COc1ccc(N(C)c2nc(C)nc3ccccc23)cc1` , which call appears in the assay record?
(A) active

(Q) Per the records of this test, what outcome belongs to `O=C(c1ccccc1)c1nn(-c2ccc(Cl)cc2)c2nc3nc(-c4ccccc4)cc(=O)n3nc12` ?
(A) inactive
